- TEST_NAME: Hydrodynamic diameter and colloidal stability of aggregates by dynamic light scattering
- Format: physicochemical
- SETUP_CONDITIONS: 5 μM in PBS from DMSO stock, 37 °C
Please note: true applies when mean size (hydrodynamic diameter) is 40 nm or greater, and false applies otherwise.

Reference set, count: 7
Quick check, mean size (hydrodynamic diameter) >= 40 nm? CC1=C(/C=C/C(C)=C/C=C/C(C)=C/C=C/C=C(C)/C=C/C=C(C)/C=C/C(=O)[C@]2(C)C[C@@H](OC(=O)CCC(=O)O)CC2(C)C)C(C)(C)C[C@H](OC(=O)CCC(=O)O)C1 [Compound 9, Capsanthin bissuccinate]
false

Quick check, mean size (hydrodynamic diameter) >= 40 nm? COc1ccc2[nH]cc(CCNC(=O)CNC(=O)CCC(=O)O[C@@H]3CC(C)=C(/C=C/C(C)=C/C=C/C(C)=C/C=C/C=C(C)/C=C/C=C(C)/C=C/C4=C(C)C[C@@H](O)CC4(C)C)C(C)(C)C3)c2c1 [Compound 13, Zeaxanthin-monomelatonin conjugate]
true

Quick check, mean size (hydrodynamic diameter) >= 40 nm? COc1ccc2[nH]cc(CCNC(=O)CNC(=O)CCC(=O)OC/C(C)=C/C=C/C(C)=C/C=C/C=C(C)/C=C/C=C(C)/C=C/C3=C(C)CCCC3(C)C)c2c1 [Compound 18, 8′-Apo-β-carotenol-melatonin conjugate]
true

Quick check, mean size (hydrodynamic diameter) >= 40 nm? COc1ccc2[nH]cc(CCNC(=O)CNC(=O)CCC(=O)O[C@@H]3CC(C)=C(/C=C/C(C)=C/C=C/C(C)=C/C=C/C=C(C)/C=C/C=C(C)/C=C/C4=C(C)C[C@@H](OC(=O)CCC(=O)NCC(=O)NCCc5c[nH]c6ccc(OC)cc56)CC4(C)C)C(C)(C)C3)c2c1 [Compound 14, Zeaxanthin-bismelatonin conjugate]
true

Quick check, mean size (hydrodynamic diameter) >= 40 nm? COc1ccc2[nH]cc(CCNC(=O)CNC(=O)CCC(=O)O[C@@H]3CC(C)=C(/C=C/C(C)=C/C=C/C(C)=C/C=C/C=C(C)/C=C/C=C(C)/C=C/C4=C(C)CCCC4(C)C)C(C)(C)C3)c2c1 [Compound 15, Cryptoxanthin-melatonin conjugate]
true

Quick check, mean size (hydrodynamic diameter) >= 40 nm? CC1=C(/C=C/C(C)=C/C=C/C(C)=C/C=C/C=C(C)/C=C/C=C(C)/C=C/C2=C(C)C[C@@H](OC(=O)CCC(=O)O)CC2(C)C)C(C)(C)CCC1 [Compound 8, β-Cryptoxanthin succinate]
false

Quick check, mean size (hydrodynamic diameter) >= 40 nm? COc1ccc2[nH]cc(CCNC(=O)CNC(=O)CCC(=O)O[C@@H]3CC(C)=C(/C=C/C(C)=C/C=C/C(C)=C/C=C/C=C(C)/C=C/C=C(C)/C=C/C4C(C)=C[C@@H](OC(=O)CCC(=O)NCC(=O)NCCc5c[nH]c6ccc(OC)cc56)CC4(C)C)C(C)(C)C3)c2c1 (some centres unmarked) [Compound 16, Lutein-bismelatonin conjugate]
true

Shift focus to the following entry.
Quick check, mean size (hydrodynamic diameter) >= 40 nm? CC1=C(/C=C/C(C)=C/C=C/C(C)=C/C=C/C=C(C)/C=C/C=C(C)/C=C/C2=C(C)C[C@@H](OC(=O)CCC(=O)O)CC2(C)C)C(C)(C)C[C@H](O)C1 [Compound 11, Zeaxanthin monossuccinate]
true

* * *

Reported solubility kinetic at 2 h is given for each of the following molecules.
- TEST_NAME: Kinetic solubility in PBS pH 7.4
- Format: physicochemical
- SETUP_CONDITIONS: aqueous buffer, kinetic from dmso stock, kinetic solubility after 2 h, at 37 °C in PBS, nominal 250 μM, read-out: Kin.Sol.
The answer is to be given in µM; state only the numeric part.

State the recorded solubility kinetic at 2 h for this entry: CC1=C(/C=C/C(C)=C/C=C/C(C)=C/C=C/C=C(C)/C=C/C=C(C)/C=C/C2=C(C)C[C@@H](OC(=O)CCC(=O)O)CC2(C)C)C(C)(C)CCC1 [Compound 8, β-Cryptoxanthin succinate]
1.3

Others:
State the recorded solubility kinetic at 2 h for this entry: CC1=C(/C=C/C(C)=C/C=C/C(C)=C/C=C/C=C(C)/C=C/C=C(C)/C=C/C2=C(C)C[C@@H](OC(=O)CCC(=O)O)CC2(C)C)C(C)(C)C[C@H](OC(=O)CCC(=O)O)C1 [Compound 7, Zeaxanthin bissuccinate]
0.6

State the recorded solubility kinetic at 2 h for this entry: COc1ccc2[nH]cc(CCNC(C)=O)c2c1 [Melatonin, melatonin, reference compound]
123

State the recorded solubility kinetic at 2 h for this entry: CC1=C(/C=C/C(C)=C/C=C/C(C)=C/C=C/C=C(C)/C=C/C=C(\C)COC(=O)CCC(=O)O)C(C)(C)CCC1 [Compound 6, 8′-Apo-β-carotenol succinate]
52.3

* * *

- TEST_NAME: Hydrodynamic diameter and colloidal stability of aggregates by dynamic light scattering
- Assay type: physicochemical
- SETUP_CONDITIONS: 0.625 μM in PBS from DMSO stock, 37 °C
VALUE_TYPE: zeta potential (mV)
The answer is to be given in mV; state only the numeric part.

Solved cases below.
State the recorded zeta potential for this entry: CC1=C(/C=C/C(C)=C/C=C/C(C)=C/C=C/C=C(C)/C=C/C=C(C)/C=C/C2=C(C)C[C@@H](OC(=O)CCC(=O)O)CC2(C)C)C(C)(C)C[C@H](OC(=O)CCC(=O)O)C1 [Compound 7, Zeaxanthin bissuccinate]
23.4

State the recorded zeta potential for this entry: COc1ccc2[nH]cc(CCNC(=O)CNC(=O)CCC(=O)O[C@@H]3CC(C)=C(/C=C/C(C)=C/C=C/C(C)=C/C=C/C=C(C)/C=C/C=C(C)/C=C/C(=O)[C@]4(C)C[C@@H](OC(=O)CCC(=O)NCC(=O)NCCc5c[nH]c6ccc(OC)cc56)CC4(C)C)C(C)(C)C3)c2c1 [Compound 17, Capsanthin-dimelatonin conjugate]
−22.9

State the recorded zeta potential for this entry: CC1=C(/C=C/C(C)=C/C=C/C(C)=C/C=C/C=C(C)/C=C/C=C(C)/C=C/C(=O)[C@]2(C)C[C@@H](OC(=O)CCC(=O)O)CC2(C)C)C(C)(C)C[C@H](OC(=O)CCC(=O)O)C1 [Compound 9, Capsanthin bissuccinate]
20.1

State the recorded zeta potential for this entry: COc1ccc2[nH]cc(CCNC(=O)CNC(=O)CCC(=O)O[C@@H]3CC(C)=C(/C=C/C(C)=C/C=C/C(C)=C/C=C/C=C(C)/C=C/C=C(C)/C=C/C4=C(C)C[C@@H](O)CC4(C)C)C(C)(C)C3)c2c1 [Compound 13, Zeaxanthin-monomelatonin conjugate]
15.4

State the recorded zeta potential for this entry: CC1=C(/C=C/C(C)=C/C=C/C(C)=C/C=C/C=C(C)/C=C/C=C(C)/C=C/C2=C(C)C[C@@H](OC(=O)CCC(=O)O)CC2(C)C)C(C)(C)CCC1 [Compound 8, β-Cryptoxanthin succinate]
27.5

Others:
State the recorded zeta potential for this entry: COc1ccc2[nH]cc(CCNC(=O)CNC(=O)CCC(=O)O[C@@H]3CC(C)=C(/C=C/C(C)=C/C=C/C(C)=C/C=C/C=C(C)/C=C/C=C(C)/C=C/C4C(C)=C[C@@H](OC(=O)CCC(=O)NCC(=O)NCCc5c[nH]c6ccc(OC)cc56)CC4(C)C)C(C)(C)C3)c2c1 (stereo partly drawn) [Compound 16, Lutein-bismelatonin conjugate]
−11.7

State the recorded zeta potential for this entry: COc1ccc2[nH]cc(CCNC(=O)CNC(=O)CCC(=O)O[C@@H]3CC(C)=C(/C=C/C(C)=C/C=C/C(C)=C/C=C/C=C(C)/C=C/C=C(C)/C=C/C4=C(C)C[C@@H](OC(=O)CCC(=O)NCC(=O)NCCc5c[nH]c6ccc(OC)cc56)CC4(C)C)C(C)(C)C3)c2c1 [Compound 14, Zeaxanthin-bismelatonin conjugate]
−0.7

State the recorded zeta potential for this entry: COc1ccc2[nH]cc(CCNC(=O)CNC(=O)CCC(=O)OC/C(C)=C/C=C/C(C)=C/C=C/C=C(C)/C=C/C=C(C)/C=C/C3=C(C)CCCC3(C)C)c2c1 [Compound 18, 8′-Apo-β-carotenol-melatonin conjugate]
−22.8

State the recorded zeta potential for this entry: CC1=C(/C=C/C(C)=C/C=C/C(C)=C/C=C/C=C(C)/C=C/C=C(\C)COC(=O)CCC(=O)O)C(C)(C)CCC1 [Compound 6, 8′-Apo-β-carotenol succinate]
−10.2

State the recorded zeta potential for this entry: CC1=C(/C=C/C(C)=C/C=C/C(C)=C/C=C/C=C(C)/C=C/C=C(C)/C=C/C2=C(C)C[C@@H](OC(=O)CCC(=O)O)CC2(C)C)C(C)(C)C[C@H](O)C1 [Compound 11, Zeaxanthin monossuccinate]
123.0

State the recorded zeta potential for this entry: CC1=C[C@H](OC(=O)CCC(=O)O)CC(C)(C)[C@H]1/C=C/C(C)=C/C=C/C(C)=C/C=C/C=C(C)/C=C/C=C(C)/C=C/C1=C(C)C[C@@H](OC(=O)CCC(=O)O)CC1(C)C [Compound 10, Lutein bissuccinate]
44.4

State the recorded zeta potential for this entry: COc1ccc2[nH]cc(CCNC(=O)CNC(=O)CCC(=O)O[C@@H]3CC(C)=C(/C=C/C(C)=C/C=C/C(C)=C/C=C/C=C(C)/C=C/C=C(C)/C=C/C4=C(C)CCCC4(C)C)C(C)(C)C3)c2c1 [Compound 15, Cryptoxanthin-melatonin conjugate]
−23.5

Origin of the recorded values: paper PMC9369794
